system: SNB-75 CNS; experiment: NCI-60 one-dose screen, 48 h (100 = growth as untreated, 0 = no growth, -100 = all killed); conditions: 10 µM unless noted
This is part of a sample that, as a whole, favours compounds with a hit. Of some 83,000 tested, about 20% had one in any assay.
The threshold is 90%. Values of growth beneath it are tagged yes; values meeting or exceeding it are tagged no.

Examples from the recorded data:
compound: Cc1nnc([S-])s1.[Au+].c1ccc([PH+](c2ccccc2)c2ccccc2)cc1
categoryLabel: yes
//
compound: COC(C)(C)CCC[C@H](C)C/C=C/C(C)=C/C(=O)OC(C)C
categoryLabel: no
//
compound: CC1(C)N=C(N)N=C(N)N1c1cccc(C(=O)Nc2cccc(S(=O)(=O)F)c2)c1
categoryLabel: yes
//
compound: Nc1cccc2c1Oc1ccccc1O2
categoryLabel: no
//
compound: CC1(C)N=C(N)N=C(N)N1c1ccc(CCCCc2ccc(S(=O)(=O)F)cc2)c(Cl)c1
categoryLabel: yes
//
compound: C[C@]12CC[C@@H]3c4ccc(OC(=O)Cc5ccc(N(CCCl)CCCl)cc5)cc4CC[C@H]3[C@@H]1CC[C@@H]2OC(=O)Cc1ccc(N(CCCl)CCCl)cc1
categoryLabel: yes
//
compound: C1CNC2CCCC2C1 (stereo unspecified)
categoryLabel: yes
//
compound: CC(N)Cc1ccc(O)cc1 (stereo unspecified)
categoryLabel: no

Given the entry ClCCN(CCCl)c1nc(Cl)c(C2CC(c3ccc(Cl)cc3)=NN2c2cc(Cl)cc(Cl)c2)s1 (stereo unspecified) , would its reported growth be below 90%?
no

In the record for Cn1cnnc1[S-].[Au+].c1ccc([PH+](c2ccccc2)c2ccccc2)cc1 , is growth less than 90%?
yes

Lab note: growth threshold 90%. Does this compound come in strictly under it? O=[N+]([O-])c1cccc([As]=[As]c2cccc([N+](=O)[O-])c2)c1 (stereo unspecified)
yes

Is 90% strictly greater than the compound's reported growth? compound: ClCCN(CCCl)c1ccc(C=NCCc2c[nH]c3ccccc23)cc1
yes

I wonder whether CC(=O)N(C)C1=Nc2ccc(Cl)cc2C(c2ccccc2)=[N+]([O-])C1 has growth below 90%. Can you tell?
no

hey, is growth for O=C1NC(=S)NC(=O)C1=Cc1ccccc1 lower than 90% or not?
yes

I'd appreciate it if you could check whether N#[N+]c1cnc([O-])[nH]c1=O has growth smaller than 90%.
yes

Just wondering, is growth of C[C@@H]1O[C@@H](O[C@H]2CC[C@@]3(C)[C@H](CCC4[C@@H]3C(O)C[C@]3(C)[C@@H](c5ccc(=O)oc5)CC[C@]43O)C2)[C@H](O)[C@H](O)[C@H]1O (stereo partly specified) below 90%?
yes

Item NC(Cc1ccc(O)cc1)C(=O)N/N=C/c1ccc(N(CCCl)CCCl)cc1 (stereo unspecified) : growth beneath 90%, strictly?
yes

Consider CC(CC(C#N)(c1ccccc1)c1ccccc1)N1CCOCC1 (stereo unspecified) . Does its growth lie strictly below 90%?
no

Please check: growth for COc1ccc(OC)c(/C=C(/C)[N+](=O)[O-])c1 , strictly under 90% or not?
yes

Input CC[C@@]1(C2O[C@@H](C3O[C@@](O)(CC)[C@H](C)C[C@@H]3C)C[C@@H]2C)CC[C@H]([C@]2(C)CCC3(C[C@H](O)[C@@H](C)[C@@H]([C@H](C)[C@@H](OC)[C@H](C)C(=O)O)O3)O2)O1 (stereo partly specified) ; condition: growth strictly below 90%. Does it hold?
yes

Find out if reported growth for CC(C)N=C(NC(C)C)N1CC1 is less than 90%
no

Is growth of CCC(CC)(c1ccccc1)C(OC(N)=O)c1ccccc1 (stereo unspecified) strictly below 90%?
yes

----------
tested on: HL-60(TB) leukemia; experiment: NCI-60 one-dose screen, 48 h; conditions: 10 µM unless noted
The panel holds about 83,000 compounds, 20% with a hit somewhere; the sample as a whole holds those more often. Calls of active or inactive are those of the source. Rule for the calls: active = growth percent below 10; inactive = the rest.
// one of active, inactive, no free text

compound: O=[N+]([O-])c1ccc(-c2noc(-c3cccs3)n2)cc1
categoryLabel: inactive
//
compound: CC1=C2[C@@H](CC1)[C@]1(C)O[C@@](C(C)C)(C[C@H]1OC(=O)CO)[C@H]2OC(=O)CCCc1ccccc1
categoryLabel: active
//
compound: CN1CCN(Cc2cc(NC(=O)c3cccc(C#Cc4cccc5[nH]nc(N)c45)c3)cc(C(F)(F)F)c2)CC1
categoryLabel: active
//
compound: Cc1cc(N2CCOCC2)nc(N(CCCNc2ccnc3cc(Cl)ccc23)Cc2ccc3c(c2)OCO3)n1
categoryLabel: active
//
compound: COc1ccc2nc(N/N=C(\C)c3ccccn3)cc(C)c2c1
categoryLabel: active

I'd appreciate the recorded outcome for Clc1ccc(-n2ncc3c(NCCCN4CCOCC4)ncnc32)cc1 from this test.
inactive

I would be grateful if you could indicate the recorded call for Cc1ccc(-c2cc(-c3ccc(C)cc3)nc(N3CCN(CCNc4ccnc5cc(Cl)ccc45)CC3)n2)cc1 .
active

I'd appreciate the recorded outcome for COc1cnc2c(c1)C(=O)c1c-2n(CCCNC2=NCCS2)c(=O)c2cc(F)ccc12 from this test.
active

Kindly provide the recorded test outcome for the following compound: Cc1c(C(C)(C)O)cn2ncnc(Oc3ccc(NC(=O)Nc4ccc(Cl)c(C(F)(F)F)c4)c(F)c3)c12
inactive

Which outcome did this test record for the compound COc1cc(CSc2nc3ccc(C)cc3c(=O)n2Cc2ccccc2)cc(OC)c1OC ?
inactive

Please let me know the test result on file for Cc1csc(C#Cc2cncc(O)c2)n1 .
inactive

Hi, sorry to bother you, what did the test record for C=CCNc1ccccc1 ?
inactive

Recorded test outcome, item Cc1ccc(/C=C(\C#N)n2nnc3cc(Cl)c(Cl)cc32)cc1
active

Which result was noted for this compound in the test: O=CN1N=C(c2cccc(Nc3ccncc3)c2)CC1c1ccc2c(c1)OCO2 (stereo not given)
inactive

For COc1ccc(-n2nc(C(=O)NCC(=O)Nc3nc4cc(OC)ccc4s3)c3ccccc3c2=O)cc1 , what call appears in the results of this test?
inactive

How was CNS(=O)(=O)c1ccc(Cl)c(Cl)c1 classified in this test?
inactive

Outcome? COc1ccc(/C=C/C(c2cc(OC)c(OC)c(OC)c2)n2cncn2)cc1O (stereo not given)
active

----------
system: A549/ATCC NSCLC; assay: NCI-60 one-dose screen, 48 h (100 = growth as untreated, 0 = no growth, -100 = all killed); conditions: 10 µM unless noted
This is part of a sample that, as a whole, favours compounds with a hit. Of some 83,000 tested, about 20% had one in any assay. Active and inactive are the calls of the source. The calls were made as follows: active = growth percent below 10; inactive = the rest.
Exercise: state measured growth for each of the compounds provided.

A selection of reference data follows.
compound: COc1cccc2c1C(=O)c1c(O)c3c(c(O)c1C2=O)CC(O)(/C(C)=N/NC(=O)CCC(=O)N/N=C(\C)C1(O)Cc2c(O)c4c(c(O)c2C(OC2CC(N)C(O)C(C)O2)C1)C(=O)c1c(OC)cccc1C4=O)CC3OC1CC(N)C(O)C(C)O1 (configuration not stated)
growth: -30% [5 µM] (active)
--
compound: Oc1ccc(O)c2c1C1(Cl)C(Cl)=C(Cl)C2(Cl)C1(Cl)Cl
growth: 46.1% (inactive)
--
compound: COc1cc(N(CCCl)CCCl)ccc1C=Nc1ccccc1C(=O)O
growth: 92.6% (inactive)

Give growth for all compounds that follow.
1. Cc1ccc(C(=O)C2CN(C)CCC2(O)c2ccc(C)cc2)cc1 (configuration not stated)
2. NCCc1cc(O)c(O)cc1O
3. C[C@]12CC[C@@H]3C4=C(CC[C@H]3[C@@H]1CC[C@@H]2O)CC(=O)CC4
4. CC1(C)CC(=O)CC(C)(C)N1N=O
5. c1ccc([As]=[As]c2ccccc2)cc1 (configuration not stated)
6. CC1(C)N=C(N)N=C(N)N1c1ccc(CCC(=O)Nc2cccc(S(=O)(=O)F)c2)cc1

104% (inactive)
100% (inactive)
98.4% (inactive)
107% (inactive)
-22.8% (active)
44.6% (inactive)

Fill in growth for each of the 5 compounds listed.
1. CC(CC(C#N)(c1ccccc1)c1ccccc1)N1CCOCC1 (configuration not stated)
2. NC(Cc1ccc(O)cc1)C(=O)N/N=C/c1ccc(N(CCCl)CCCl)cc1 (configuration not stated)
3. O=C(CCF)c1ccc(O)cc1
4. CNC(=O)Oc1ccccc1
5. O=[N+]([O-])c1ccccc1N1CCNCC1

95.6% (inactive)
52.3% (inactive)
101% (inactive)
94.9% (inactive)
95% (inactive)

Below are some compounds; for each one, tell me its growth.
1. CCOc1cc(/C=N\Nc2nnc(C)n2N)c(C)cc1N(CCCl)CCCl
2. ClCCN(CCCl)c1nc(Cl)c(C2CC(c3ccc(Cl)cc3)=NN2c2cc(Cl)cc(Cl)c2)s1 (configuration not stated)
3. CCOP(=O)(OCC)Oc1ccc(Sc2ccc(OP(=O)(OCC)OCC)cc2)cc1
4. CC[C@]12C=CCN3CC[C@@]4(c5ccc(OC)cc5N(C)[C@H]4[C@@](O)(C(=O)OC)[C@@H]1OC(=O)CCCN1CCN(CCCC(=O)O[C@@H]4[C@]5(CC)C=CCN6CC[C@@]7(c8ccc(OC)cc8N(C)[C@H]7[C@@]4(O)C(=O)OC)[C@@H]65)CC1)[C@@H]32
5. CC[C@H](C)[C@H](NC(=O)Nc1ccccc1)C(=O)N(C)[C@H](C[C@@H](OC(C)=O)c1nc(C(=O)N[C@@H](Cc2ccccc2)C[C@H](C)C(=O)OC)cs1)C(C)C
6. CN=C(NN)NN
7. CC(C)N=C(NC(C)C)N1CC1

14.5% (inactive)
97.7% (inactive)
97.5% (inactive)
-81.4% (active)
23.5% (inactive)
96.2% (inactive)
101% (inactive)

# batch size: 8; output growth per entry
1. CCCCCN(CCCCC)CC(O)c1ccc(C)c(Cl)c1 (configuration not stated)
2. OC1CCCCC1N1CCC(c2ccccc2)CC1 (configuration not stated)
3. CN1C(=O)NC(=O)C(N=Nc2ccc(Cl)cc2)C1=O (configuration not stated)
4. C[C@]12CC[C@H](OC3OC(O)C(O)C(O)C3O)C=C1CCC1C2CC[C@]2(C)[C@@H](c3ccc(=O)oc3)CC[C@]12O (some centres not stated)
5. O=C(CF)N(O)c1ccc(/C=C/c2ccccc2)cc1
6. CC1([N+](=O)[O-])COP(=O)(Nc2ccc(F)cc2)OC1 (configuration not stated)
7. S=P(NC1CCCCC1)(N1CC1)N1CC1
8. Cc1cc(C)nc(C)c1.[Cl][Hg][Cl]

1: 92.7% (inactive); 2: 106% (inactive); 3: 101% (inactive); 4: 102% (inactive); 5: 36.4% (inactive); 6: 98.5% (inactive); 7: 101% (inactive); 8: 97.2% (inactive)

Dear reader, for each entry below, please note its growth.
1. CCC1CN1P(=O)(OCCOC)N1CC1CC (configuration not stated)
2. Fc1ccc(C2=NN(c3ccccc3)C(c3sc(N(CCCl)CCCl)nc3Cl)C2)cc1 (configuration not stated)
3. C[C@]12CCC(=O)CC1CC[C@@H]1C2CC[C@@]2(C)C1CC[C@@H]2OC(=O)CC[Se][Se]CCC(=O)O[C@H]1CCC2[C@@H]3CCC4CC(=O)CC[C@]4(C)C3CC[C@@]21C (some centres not stated)

1. 101% (inactive)
2. 86.3% (inactive)
3. 101% (inactive)
